# Test system: HCC-2998 colon
# experiment summary: NCI tumour cell line growth inhibition, 48 h
Provide the reported TGI of each item.

[[record]]
compound = "C=C1C(=O)O[C@H]2[C@H]3O[C@@H](C[C@@H]12)[C@@]1(C)CC[C@H](O1)C(C)=CCC[C@H]3C"
val = "3.25 µM"

[[record]]
compound = "C/C(=N\\NC(=S)NC(C)(C)C)c1ccccn1"
val = "> 100 µM"

[[record]]
compound = "CC1CCC(C(C)C)C(O[C@@H]2OC(=O)C[C@@H]2Sc2ccccc2)C1 (stereo partly drawn)"
val = "55.9 µM"

[[record]]
compound = "O=C(c1cccnc1)c1cc(-c2ccccn2)c(=O)n2ccccc12"
val = "> 100 µM"

[[record]]
compound = "Cc1ccc(Sc2ccc(C)cc2[N+](=O)[O-])c([N+](=O)[O-])c1"
val = "> 100 µM"

[[record]]
compound = "O=C1NC2C=CN(Cc3ccccc3)C=C2C(=O)N2CCCC12 (stereo not drawn)"
val = "> 100 µM"

[[record]]
compound = "O=C(/C=C/c1ccc(Cl)cc1)c1cccs1"
val = "37.5 µM"

[[record]]
compound = "CCOC(=O)C1=C(Nc2cccc3ccccc23)OC/C1=N\\NC(=O)c1ccccc1O"
val = "> 100 µM"

[[record]]
compound = "O=C1Nc2ccccc2/C1=C/c1c(Cl)[nH]c2ccc(O)cc12"
val = "24.2 µM"

[[record]]
compound = "CC(CCC(=O)O)C1CCC2C3C(O)CC4CC(O)CCC4(C)C3CC(O)C12C (stereo not drawn)"
val = "> 100 µM"


Lab note: each compound below needs its TGI filled in.
1. Cc1ccc(S(=O)(=O)NNC2(NS(=O)(=O)c3ccc(Cl)cc3)C(Cl)=C(Cl)C(=O)c3ccccc32)cc1 (stereo not drawn)
2. O=C(NCCc1ccccc1)c1c(O)c2ccccc2[nH]c1=O
3. CC(C)c1ccc(Nc2nccc(-c3cnn4ncccc34)n2)cc1

**Result**
1. 33.2 µM
2. > 100 µM
3. > 10.2 µM
